- target or test system: full-length beta-Catenin (Uniprot ID P35222) (Homo sapiens, UniProt P35222)
- Construct: 10 nM full-length beta-Catenin (Uniprot ID P35222)
- Sequence (P35222 whole entry, one chain of several): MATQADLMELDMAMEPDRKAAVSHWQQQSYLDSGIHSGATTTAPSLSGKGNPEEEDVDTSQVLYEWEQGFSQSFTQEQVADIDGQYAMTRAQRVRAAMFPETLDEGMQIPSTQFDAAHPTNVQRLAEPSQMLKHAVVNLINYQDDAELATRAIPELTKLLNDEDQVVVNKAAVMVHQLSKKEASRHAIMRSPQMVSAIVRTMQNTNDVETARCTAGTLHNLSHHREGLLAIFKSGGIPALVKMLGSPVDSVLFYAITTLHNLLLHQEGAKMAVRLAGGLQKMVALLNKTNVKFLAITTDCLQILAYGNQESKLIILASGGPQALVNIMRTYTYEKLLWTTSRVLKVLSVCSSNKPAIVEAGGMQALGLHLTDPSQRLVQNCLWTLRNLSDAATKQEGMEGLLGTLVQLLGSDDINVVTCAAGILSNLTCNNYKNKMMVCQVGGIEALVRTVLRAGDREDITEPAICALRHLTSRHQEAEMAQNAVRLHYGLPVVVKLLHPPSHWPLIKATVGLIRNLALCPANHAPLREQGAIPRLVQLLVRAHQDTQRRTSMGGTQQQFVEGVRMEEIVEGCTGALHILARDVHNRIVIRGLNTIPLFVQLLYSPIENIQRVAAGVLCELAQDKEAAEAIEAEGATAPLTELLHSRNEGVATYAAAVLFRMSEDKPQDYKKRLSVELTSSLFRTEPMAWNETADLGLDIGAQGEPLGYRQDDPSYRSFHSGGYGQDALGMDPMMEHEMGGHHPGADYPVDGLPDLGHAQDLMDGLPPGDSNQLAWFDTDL
- test: Fluorescence polarization IC50 (beta-catenin / 5FAM-TCF4 10-53 competition)
- Format: binding
- condition description: fluorescence polarization; read-out: beta-Catenin FP IC50
pIC50: −log10 of the molar value.

compound	target or test system	pIC50
CC(=O)N1CCC[C@]12CC=CCCCC1(CCCC=CCCCOC(=O)N3CC[C@@](C(=O)N[C@@H](Cc4cccc(C)c4)C(=O)N[C@@H](Cc4csc5ccccc45)C(=O)N[C@@H](CCC(N)=O)C(N)=O)(C3)NC(=O)[C@H](CC(N)=O)NC(=O)[C@H](Cc3ccccc3)NC(=O)[C@H](C)NC(=O)[C@H](C)NC(=O)[C@H]([C@@H](C)O)NC(=O)[C@H](CC(N)=O)NC1=O)NC(=O)[C@H](CC(C)(C)C)NC(=O)[C@H](CC(=O)O)NC2=O (some centres unmarked)	full-length beta-Catenin (Uniprot ID P35222) (Homo sapiens, UniProt P35222)	5.44
CC(=O)N1CCC[C@]12CC=CCCCC1(CCCC=CCCCOC(=O)N3CC[C@@](C(=O)N[C@@H](Cc4ccccc4)C(=O)N[C@@H](Cc4csc5ccccc45)C(=O)N[C@@H](CCC(N)=O)C(N)=O)(C3)NC(=O)[C@H](CC(C)C)NC(=O)[C@H](Cc3ccccc3)NC(=O)[C@H](C)NC(=O)[C@H](CCO)NC(=O)[C@H](CCC(N)=O)NC(=O)[C@H](CC(=O)O)NC1=O)NC(=O)[C@H](CC1CCCCC1)NC(=O)[C@H](CC(N)=O)NC2=O (some centres unmarked) [I-2354]	full-length beta-Catenin (Uniprot ID P35222) (Homo sapiens, UniProt P35222)	7.00

====

Entries and their CHI Log D
- test: CHI Log D procedure
- Type: physicochemical
- condition description: pH 7.4
metric: CHI Log D

molecule	metric	experimental value
CC(=O)N1CCC[C@]12CC=CCCCC1(CCCC=CCCCCCC[C@@](C)(C(=O)N[C@@H](Cc3ccccc3)C(=O)N[C@@H](Cc3c[nH]c4ccccc34)C(=O)N[C@@H](CCC(N)=O)C(N)=O)NC(=O)[C@H](C(C)C)NC(=O)[C@H](Cc3ccccc3)NC(=O)[C@H](C)NC(=O)[C@H](C)NC(=O)[C@H](CC(=O)O)NC(=O)[C@H](CCC(=O)O)NC1=O)NC(=O)[C@H](C)NC(=O)[C@H](CC(=O)O)NC2=O (stereo partly drawn) [I-282]	CHI Log D	2.224
CC(=O)N1CCC[C@]12CC=CCCCC1(CCCC=CCCCCCC[C@@](C)(C(=O)N[C@@H](Cc3ccccc3)C(=O)N[C@@H](Cc3csc4ccccc34)C(=O)N[C@@H](CCC(N)=O)C(N)=O)NC(=O)[C@H](CC(N)=O)NC(=O)[C@H](Cc3ccccc3C)NC(=O)[C@H](C)NC(=O)[C@H](C)NC(=O)[C@H](CCC(=O)O)NC(=O)[C@H](CC(=O)O)NC1=O)NC(=O)[C@H](C)NC(=O)[C@H](CC(=O)O)NC2=O (stereo partly drawn) [I-457]	CHI Log D	2.0242
C[C@@H]1NC(=O)[C@H](C)NC(=O)[C@H](CC(=O)O)NC(=O)[C@H](CC(=O)O)NC(=O)C2(CCCC=CCCCCCC[C@@](C)(C(=O)N[C@@H](Cc3ccsc3)C(=O)N[C@@H](Cc3csc4ccccc34)C(=O)N[C@@H](CCC(N)=O)C(N)=O)NC(=O)[C@H](CC(N)=O)NC(=O)[C@H](Cc3ccccc3)NC1=O)CCCC=CC[C@]1(CCCN1C(=O)CN=[N+]=[N-])C(=O)N[C@@H](CC(=O)O)C(=O)N[C@@H](CC(C)(C)C)C(=O)N2 (stereo partly drawn) [I-1052]	CHI Log D	2.334

====

- target or test system: beta-catenin/TCF4 engagement (Homo sapiens, UniProt P35222)
- Construct: expressed in transfected cells; host or cells: HEK293
- Sequence (P35222 whole entry): as the sequence (P35222 whole entry, one chain of several) above
- test: Nano-BRET target engagement assay (B-cat-Halo & TCF4-Luc in HEK293 cells)
- Assay type: cell-based
- condition description: read-out: NanoBRET Abs IC50
pIC50: −log10 of the molar value.

compound	bound type	pIC50
CC(=O)N1CCC[C@]12CC=CCCCC1(CCCC=CCCCOC(=O)N3CC[C@@](C(=O)N[C@@H](Cc4ccccc4Cl)C(=O)N[C@@H](Cc4csc5ccccc45)C(=O)N[C@H](C)C(N)=O)(C3)NC(=O)[C@H](CO)NC(=O)[C@H](Cc3ccccc3)NC(=O)[C@H](C)NC(=O)[C@H](C)NC(=O)[C@H](Cc3cccc(C(=O)O)c3)NC(=O)[C@H](CC(=O)O)NC1=O)NC(=O)[C@H](CC(C)(C)C)NC(=O)[C@H](CC(=O)O)NC2=O (stereo partly drawn)	=	5.41
CC(=O)N1CCC[C@]12CC=CCCCC1(CCCC=CCCCOC(=O)N3CC[C@@](C(=O)N[C@@H](Cc4ccsc4)C(=O)N[C@@H](Cc4csc5ccccc45)C(=O)N[C@@H](CCC(N)=O)C(N)=O)(C3)NC(=O)[C@H](CC(C)C)NC(=O)[C@H](Cc3ccccc3)NC(=O)[C@H](C)NC(=O)[C@H](C)NC(=O)[C@H](CCn3cc(-c4ccccc4C(=O)O)nn3)NC(=O)[C@H](CC(=O)O)NC1=O)NC(=O)[C@H](CC(C)(C)C)NC(=O)[C@H](CC(=O)O)NC2=O (stereo partly drawn) [I-2081]	=	4.94
CC(=O)N1CCC[C@]12CC=CCCCC1(CCCC=CCCCOC(=O)N3CCC(C(=O)N[C@@H](Cc4ccsc4)C(=O)N[C@@H](Cc4csc5ccccc45)C(=O)N[C@@H](C)C(N)=O)(CC3)NC(=O)[C@H](CC(C)C)NC(=O)[C@H](Cc3ccccc3)NC(=O)[C@H](C)NC(=O)[C@H](CCC(N)=O)NC(=O)[C@H](Cc3cccc(C(=O)O)c3)NC(=O)[C@H](CC(=O)O)NC1=O)NC(=O)[C@H](CC(C)(C)C)NC(=O)[C@H](CC(=O)O)NC2=O (stereo partly drawn) [I-2592]	<	4.70

====

- test: Solubility in PBS
- Assay type: physicochemical

compound	Solubility (µM)
CC(=O)N1CCC[C@]12CC=CCCCC1(CCCC=CCCCOC(=O)N3CC[C@@](C(=O)N[C@@H](Cc4ccccc4)C(=O)N[C@@H](Cc4csc5ccccc45)C(=O)N[C@@H](CO)C(N)=O)(C3)NC(=O)[C@H]([C@@H](C)O)NC(=O)[C@H](Cc3ccc4ccccc4c3)NC(=O)[C@H](C)NC(=O)[C@H](C)NC(=O)[C@H]([C@@H](C)O)NC(=O)[C@H](CC(=O)O)NC1=O)NC(=O)[C@H](CC(C)(C)C)NC(=O)[C@H](CC(=O)O)NC2=O (stereo partly drawn)	10
CC(=O)N1CCC[C@]12CC=CCCCC1(CCCC=CCCCOC(=O)N3CC[C@@](C(=O)N[C@@H](Cc4ccsc4)C(=O)N[C@@H](Cc4csc5ccccc45)C(=O)N[C@@H](Cc4c[nH]cn4)C(N)=O)(C3)NC(=O)[C@H](CC(N)=O)NC(=O)[C@H](Cc3ccccc3)NC(=O)[C@H](C)NC(=O)[C@H](C)NC(=O)[C@H](CCC(=O)O)NC(=O)[C@H](CC(=O)O)NC1=O)NC(=O)[C@H](CC(C)(C)C)NC(=O)[C@H](CC(=O)O)NC2=O (stereo partly drawn) [I-697]	21
CC(=O)N1CCC[C@]12CC=CCCCC1(CCCC=CCCCCCC[C@@](C)(C(=O)N[C@@H](Cc3ccccc3C(N)=O)C(=O)N[C@@H](Cc3csc4ccccc34)C(=O)N[C@@H](Cc3c[nH]cn3)C(N)=O)NC(=O)[C@H](CC(N)=O)NC(=O)[C@H](Cc3ccccc3)NC(=O)[C@H](C)NC(=O)[C@H](C)NC(=O)[C@H](CCC(=O)O)NC(=O)[C@H](CC(=O)O)NC1=O)NC(=O)[C@H](C)NC(=O)[C@H](CC(=O)O)NC2=O (stereo partly drawn)	50

====

Entries and their chromatographic logD
- test: CHI Log D procedure
- Format: physicochemical
- condition description: pH 7.4, CHI Log D

compound	chromatographic logD
CC(=O)N1CCC[C@]12CC=CCCCC1(CCCC=CCCCOC(=O)N3CC[C@@](C(=O)N[C@@H](Cc4ccsc4)C(=O)N[C@@H](Cc4csc5ccccc45)C(=O)N[C@@H](CCC(N)=O)C(N)=O)(C3)NC(=O)[C@H](Cc3ccccc3)NC(=O)[C@H](Cc3ccccc3)NC(=O)[C@H](C)NC(=O)[C@H](C)NC(=O)[C@H](Cc3ccc(C(=O)O)cc3)NC(=O)[C@H](CC(=O)O)NC1=O)NC(=O)[C@H](CC(C)(C)C)NC(=O)[C@H](CC(=O)O)NC2=O (some centres unmarked)	2.26
CC(=O)N1CCC[C@]12CC=CCCCC1(CCCC=CCCCOC(=O)N3CC[C@@](C(=O)N[C@@H](Cc4ccccc4Cl)C(=O)N[C@@H](Cc4csc5ccccc45)C(=O)N[C@@H](CCC(N)=O)C(N)=O)(C3)NC(=O)[C@H](CC(N)=O)NC(=O)[C@H](Cc3ccccc3)NC(=O)[C@H](CC(C)C)NC(=O)[C@H](C)NC(=O)[C@H](CN(CC(=O)O)CC(F)(F)F)NC(=O)[C@H](CC(=O)O)NC1=O)NC(=O)[C@H](CC(C)(C)C)NC(=O)[C@H](CC(=O)O)NC2=O (some centres unmarked)	2.6
